Origin of measurements: PubChem BioAssay

Experiment: human hepatoma cell viability loss – ATP luminescence, cytotoxicity control for P. falciparum antimalarial project, primary screen (AID 2303);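 also: 0% = DMSO wells and 100% = digitonin-killed cells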
Conditions: HepG2 viability, 24-48 h, at 10 µM, stronger effect = higher value
experimentalEndpoint: inhibition (%)
Answer format: numeric, % implied, no suffix.

CCNc1cc(C(=O)N[C@@H](Cc2ccccc2)[C@H](O)CNC2CCSCC2)cc(N2CCCC2=O)c1 ... 0
Cc1ccc(F)c(NC(=O)c2c(-c3c(F)cccc3Cl)noc2C)c1 ... 13
O=C(Nc1cccc(CN2CCN(C(=O)c3cccs3)CC2)c1)c1cccs1 ... -2

query: Sample Fc1ccc(-c2cc(NCCCn3ccnc3)nc(-c3cccnc3)n2)cc1 — what was its inhibition?
result: 11

query: Sample CCOc1c(CNCCCNc2cc(=O)c3ccccc3[nH]2)cc(I)cc1OC — what was its inhibition?
result: -4

query: Sample CC(C)c1ccc(S(=O)(=O)N(c2ccc3c(c2)OCO3)C2CCN(Cc3ccccc3)C2)cc1 (stereo not given) — what was its inhibition?
result: 1

query: Sample COc1ccc2nc3cc(Cl)ccc3c(NCCCN3CCNCC3)c2c1 — what was its inhibition?
result: 18

query: Sample Cc1nnc2c(NC(=O)NC3CCCC3)cc3ccc(-c4cccc(CN(C)C)c4)cc3n12 — what was its inhibition?
result: 42

query: Sample CCN(CCCN1CCCCC1)c1cc(C)nc(Nc2cccc(C(F)(F)F)c2C)n1 — what was its inhibition?
result: 57

query: Sample Cc1ccc(C(C)C)cc1CON1C(N)=NC(N)=NC1(C)C — what was its inhibition?
result: 66
